Each entry below carries its recorded pIC50.
target: PI3K γ (p110γ) (Homo sapiens, UniProt P48736); construct: purchased Upstate / Millipore Corporation; assay: PI 3-Kinase (human) HTRF assay, PI3K γ; format: biochemical; details: read-out: PI3K γ IC50
Sequence (P48736 whole entry): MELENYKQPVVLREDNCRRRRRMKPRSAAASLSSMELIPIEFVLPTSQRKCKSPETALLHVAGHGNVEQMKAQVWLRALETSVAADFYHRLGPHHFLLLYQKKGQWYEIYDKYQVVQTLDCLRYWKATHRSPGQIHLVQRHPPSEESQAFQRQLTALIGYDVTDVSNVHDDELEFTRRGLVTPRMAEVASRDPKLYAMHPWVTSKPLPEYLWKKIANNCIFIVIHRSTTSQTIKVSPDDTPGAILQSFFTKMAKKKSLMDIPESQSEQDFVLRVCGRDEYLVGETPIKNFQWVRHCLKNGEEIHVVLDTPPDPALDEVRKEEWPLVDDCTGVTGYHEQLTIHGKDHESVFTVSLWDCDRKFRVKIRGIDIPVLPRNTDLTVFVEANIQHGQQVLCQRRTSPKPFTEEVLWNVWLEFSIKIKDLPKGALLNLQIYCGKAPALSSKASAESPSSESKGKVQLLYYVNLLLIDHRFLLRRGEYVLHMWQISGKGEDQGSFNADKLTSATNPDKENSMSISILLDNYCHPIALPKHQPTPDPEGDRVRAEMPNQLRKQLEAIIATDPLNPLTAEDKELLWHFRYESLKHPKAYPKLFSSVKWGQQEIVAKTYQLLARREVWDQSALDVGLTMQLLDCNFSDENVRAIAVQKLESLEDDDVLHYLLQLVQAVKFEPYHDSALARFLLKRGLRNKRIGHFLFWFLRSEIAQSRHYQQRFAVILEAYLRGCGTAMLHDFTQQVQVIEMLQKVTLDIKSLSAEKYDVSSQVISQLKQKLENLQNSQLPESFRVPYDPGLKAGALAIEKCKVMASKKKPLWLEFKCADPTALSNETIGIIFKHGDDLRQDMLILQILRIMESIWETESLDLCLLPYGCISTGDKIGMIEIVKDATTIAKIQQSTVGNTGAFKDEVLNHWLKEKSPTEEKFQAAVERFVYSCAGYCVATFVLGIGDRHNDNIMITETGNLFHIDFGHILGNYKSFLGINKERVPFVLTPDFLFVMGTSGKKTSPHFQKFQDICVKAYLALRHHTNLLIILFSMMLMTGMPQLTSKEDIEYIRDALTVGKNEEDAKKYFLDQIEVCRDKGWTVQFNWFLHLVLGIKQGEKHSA
pIC50: −log10 of the molar value.

Task item: Notebook: pull reported pIC50 for PI3K γ (p110γ) (Homo sapiens, UniProt P48736), entry `CN1CCC(Nc2ncnc3ccc(-c4ccc5oc(N)nc5c4)cc23)CC1`
Reply: > 7.00

Task item: Notebook: pull reported pIC50 for PI3K γ (p110γ) (Homo sapiens, UniProt P48736), entry `Nc1nc2cc(-c3ccc4ncc(C(=O)NCCOCC(=O)O)n4c3)ccc2o1`
Reply: > 7.00

---

biological target: PI3K β (p110β/p85α) (Homo sapiens); construct: purchased Upstate / Millipore Corporation; assay: PI 3-Kinase (human) HTRF assay, PI3K β; type: biochemical; conditions: read-out: PI3K β IC50
pIC50: −log10 of the molar value.
assay.metric: pIC50

# smiles.repr, assay.metric, measured
records = [
    ("C[C@H]1CN(c2cnc3ccc(-c4ccc5nc(N)oc5c4)cc3n2)CCN1", "pIC50", "> 6.00"),
    ("Nc1nc2cc(-c3ccc4sc(N)nc4c3)cc(F)c2o1", "pIC50", "> 6.00"),
    ("O=C(c1cnc2ccc(-c3cccc(NS(=O)(=O)c4ccccc4)c3)cn12)N1CCOCC1", "pIC50", "< 5.00"),
    ("CNC(=O)N1CCN(c2cnc3ccc(-c4ccc5oc(N)nc5c4)cc3n2)CC1", "pIC50", "> 6.00"),
]

Task item: # get_value(readout='pIC50', item= `Nc1nc2cc(-c3ccc4ncn(C5CC5)c(=O)c4c3)ccc2o1` )
Reply: < 5.00

Task item: # get_value(readout='pIC50', item= `Nc1nc2cc(-c3ccc4ncc(N5CC(n6cccn6)C5)nc4c3)ccc2o1` )
Reply: > 5.00

Task item: # get_value(readout='pIC50', item= `CN1CCC(NC(=O)c2cnc3ccc(-c4ccc5oc(N)nc5c4)cn23)CC1` )
Reply: > 6.00

Task item: # get_value(readout='pIC50', item= `Nc1nc2cc(-c3ccc4ncc(N5CCN(C(=O)CN6CCCC6)CC5)nc4c3)ccc2o1` )
Reply: > 6.00

---

Each entry below carries its recorded IC50.
target: PI3K β (p110β/p85α) (Homo sapiens, UniProt P42338); construct: purchased Upstate / Millipore Corporation; test: PI 3-Kinase (human) HTRF assay, PI3K β; assay type: biochemical; settings: read-out: PI3K β IC50
Sequence (P42338 whole entry): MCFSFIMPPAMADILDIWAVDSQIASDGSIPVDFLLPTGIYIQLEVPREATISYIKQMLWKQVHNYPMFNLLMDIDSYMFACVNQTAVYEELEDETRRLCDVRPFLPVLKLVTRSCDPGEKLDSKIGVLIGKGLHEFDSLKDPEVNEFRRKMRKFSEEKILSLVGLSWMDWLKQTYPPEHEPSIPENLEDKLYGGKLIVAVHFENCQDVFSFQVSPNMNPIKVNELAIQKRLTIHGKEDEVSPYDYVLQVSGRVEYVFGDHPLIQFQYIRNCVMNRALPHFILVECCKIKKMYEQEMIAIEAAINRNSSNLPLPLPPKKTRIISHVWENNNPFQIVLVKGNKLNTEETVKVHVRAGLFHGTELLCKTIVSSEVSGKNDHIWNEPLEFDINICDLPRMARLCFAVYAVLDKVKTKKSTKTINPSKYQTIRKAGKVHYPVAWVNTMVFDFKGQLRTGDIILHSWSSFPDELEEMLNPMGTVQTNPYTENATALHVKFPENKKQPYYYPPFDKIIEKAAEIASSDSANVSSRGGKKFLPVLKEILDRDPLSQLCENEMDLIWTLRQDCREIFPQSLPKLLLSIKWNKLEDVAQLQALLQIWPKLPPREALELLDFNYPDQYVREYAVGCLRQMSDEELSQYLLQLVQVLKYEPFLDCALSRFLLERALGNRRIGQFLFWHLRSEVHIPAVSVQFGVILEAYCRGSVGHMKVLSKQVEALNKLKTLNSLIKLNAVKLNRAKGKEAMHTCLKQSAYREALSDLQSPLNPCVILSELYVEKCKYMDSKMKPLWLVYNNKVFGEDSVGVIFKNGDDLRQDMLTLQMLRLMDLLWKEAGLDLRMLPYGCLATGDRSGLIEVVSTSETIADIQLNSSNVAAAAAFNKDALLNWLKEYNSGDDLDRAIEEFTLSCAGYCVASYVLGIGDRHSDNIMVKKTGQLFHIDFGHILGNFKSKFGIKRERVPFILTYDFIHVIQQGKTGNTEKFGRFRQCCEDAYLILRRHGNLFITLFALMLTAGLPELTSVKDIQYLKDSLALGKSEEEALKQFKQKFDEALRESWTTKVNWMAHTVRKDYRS
Sequence (P27986 whole entry partner): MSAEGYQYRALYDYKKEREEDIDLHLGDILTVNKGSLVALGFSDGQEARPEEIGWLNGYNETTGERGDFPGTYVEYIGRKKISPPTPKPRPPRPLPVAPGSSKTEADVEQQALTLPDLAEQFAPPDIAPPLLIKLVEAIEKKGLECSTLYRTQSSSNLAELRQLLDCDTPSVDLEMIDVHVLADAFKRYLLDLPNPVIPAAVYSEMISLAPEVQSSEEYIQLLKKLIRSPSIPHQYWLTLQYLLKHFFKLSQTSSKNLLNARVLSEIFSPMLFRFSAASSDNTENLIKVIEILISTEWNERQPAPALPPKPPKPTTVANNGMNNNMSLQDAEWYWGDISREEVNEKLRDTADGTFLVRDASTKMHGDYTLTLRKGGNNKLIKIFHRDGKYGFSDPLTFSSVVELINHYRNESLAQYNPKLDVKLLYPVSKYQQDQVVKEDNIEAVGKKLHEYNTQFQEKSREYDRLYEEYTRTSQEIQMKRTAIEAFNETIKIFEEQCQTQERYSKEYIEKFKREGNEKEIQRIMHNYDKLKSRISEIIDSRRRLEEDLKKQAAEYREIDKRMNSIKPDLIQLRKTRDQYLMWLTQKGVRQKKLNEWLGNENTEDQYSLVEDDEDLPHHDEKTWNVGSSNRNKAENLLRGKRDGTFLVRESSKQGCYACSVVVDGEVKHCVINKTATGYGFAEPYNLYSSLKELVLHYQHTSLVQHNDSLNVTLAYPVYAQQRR

# compound, IC50
data = [
    ("Cc1nc2ccc(-c3ccc4oc(N)nc4c3)cn2c1C(=O)N1CCN(C)CC1", "> 10 µM"),
    ("CC(C)N1CCC(n2cnc3ccc(-c4cncc(NS(=O)(=O)c5ccc(F)cc5F)c4)cc3c2=O)CC1", "< 10 µM"),
    ("Cc1c(-c2ccc3ncc(N4CC(N5CCOCC5)C4)nc3c2)ccc2oc(N)nc12", "> 10 µM"),
    ("CS(=O)(=O)N1CCN(c2cnc3ccc(-c4ccc5oc(N)nc5c4)cc3n2)CC1", "< 1 µM"),
    ("Cc1cc(-c2ccc3nc(N)oc3c2)cn2c(N3CCN(C)CC3)nnc12", "> 10 µM"),
    ("Nc1nc2cc(-c3ccc4ncc(C(=O)N5CCOCC5)nc4c3)ccc2o1", "> 10 µM"),
    ("Nc1nc2cc(-c3ccc4ncc(N5CCCCC5)nc4c3)ccc2o1", "> 10 µM"),
    ("CN1CCC(N(C)C(=O)c2cnc3ccc(-c4ccc5oc(N)nc5c4)cn23)CC1", "< 10 µM"),
]

Here is the next item to consider.
Task item: # get_value(readout='IC50', item= `CCN1CCN(C2CN(c3cnc4ccc(-c5ccc6oc(N)nc6c5)cc4n3)C2)CC1` )
Reply: < 1 µM

---

molecular target: PI3K δ (Homo sapiens, UniProt O00329); construct: purchased Upstate / Millipore Corporation; assay: PI 3-Kinase (human) HTRF assay, PI3K δ; assay type: biochemical; conditions: read-out: PI3K δ IC50
Sequence (O00329 whole entry, one chain of several): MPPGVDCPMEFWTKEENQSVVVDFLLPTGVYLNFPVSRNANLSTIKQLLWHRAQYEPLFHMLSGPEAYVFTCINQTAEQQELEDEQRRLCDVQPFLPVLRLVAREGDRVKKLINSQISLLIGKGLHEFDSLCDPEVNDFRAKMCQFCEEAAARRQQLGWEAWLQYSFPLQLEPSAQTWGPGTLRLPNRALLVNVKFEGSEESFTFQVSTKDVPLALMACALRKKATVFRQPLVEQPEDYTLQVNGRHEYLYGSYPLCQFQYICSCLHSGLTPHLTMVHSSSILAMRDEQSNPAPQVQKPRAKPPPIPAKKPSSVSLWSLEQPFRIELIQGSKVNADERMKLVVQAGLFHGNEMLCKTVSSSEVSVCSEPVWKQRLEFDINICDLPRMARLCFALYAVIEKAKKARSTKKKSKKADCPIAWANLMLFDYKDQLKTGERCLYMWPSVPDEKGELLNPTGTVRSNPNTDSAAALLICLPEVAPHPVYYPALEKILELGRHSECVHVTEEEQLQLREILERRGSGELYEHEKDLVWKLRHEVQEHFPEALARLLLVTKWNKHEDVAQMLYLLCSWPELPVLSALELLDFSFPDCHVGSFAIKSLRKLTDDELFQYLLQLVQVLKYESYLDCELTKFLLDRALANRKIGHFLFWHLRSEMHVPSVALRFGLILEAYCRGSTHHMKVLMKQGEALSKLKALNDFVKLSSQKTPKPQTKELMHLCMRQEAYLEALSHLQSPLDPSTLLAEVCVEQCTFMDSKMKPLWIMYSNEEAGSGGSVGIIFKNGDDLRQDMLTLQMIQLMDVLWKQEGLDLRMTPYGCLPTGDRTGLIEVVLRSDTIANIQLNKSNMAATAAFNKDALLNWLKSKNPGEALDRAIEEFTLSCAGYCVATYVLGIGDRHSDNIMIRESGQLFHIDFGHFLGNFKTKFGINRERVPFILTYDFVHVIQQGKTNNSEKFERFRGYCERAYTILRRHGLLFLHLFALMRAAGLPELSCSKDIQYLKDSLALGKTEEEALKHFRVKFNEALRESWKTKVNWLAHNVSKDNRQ
Each entry below carries its recorded IC50.

Check out these entries, answers already filled in.
# compound, measured
data = [
    ("CN1CCN(C(=O)c2cnc3ccc(-c4ccc5sc(N)nc5c4)cn23)CC1 [Compound 144]", "> 10 µM"),
    ("CS(=O)(=O)CCN1CCN(c2cnc3ccc(-c4ccc5oc(N)nc5c4)cc3n2)CC1 [Compound 90]", "< 10 µM"),
    ("CN1CCCN(c2cnc3ccc(-c4ccc5oc(N)nc5c4)cc3n2)CC1 [Compound 136]", "> 10 µM"),
]

Task item: # get_value(readout='IC50', item= Nc1nc2cccc(-c3ccc4ncc(C(=O)N5CCOCC5)n4c3)c2s1 [Compound 485] )
Reply: > 10 µM

Task item: # get_value(readout='IC50', item= CC1CN(c2cnc3ccc(-c4ccc5oc(N)nc5c4)cc3n2)CCO1 (centres unmarked) [Compound 173] )
Reply: < 10 µM

Task item: # get_value(readout='IC50', item= Nc1noc2cc(-c3ccc4ncc(C(=O)N5CCOCC5)n4c3)ccc12 [Compound 488] )
Reply: > 10 µM

Task item: # get_value(readout='IC50', item= Nc1nc2cc(-c3ccc4ncc(N5CCN(C(=O)C6(N)CC6)CC5)nc4c3)ccc2o1 [Compound 226] )
Reply: < 10 µM

---

Each entry below carries its recorded IC50.
target: PI3K δ (Homo sapiens, UniProt O00329); construct: purchased Upstate / Millipore Corporation; assay: PI 3-Kinase (human) HTRF assay, PI3K δ; type: biochemical; conditions: read-out: PI3K δ IC50

# smiles.repr, IC50
data = [
    ("Nc1nc2cc(-c3ccc4ncc(-c5ccc6nc(N)oc6c5)n4c3)ccc2o1", "< 10 µM"),
]

Task item: # get_value(readout='IC50', item= `Nc1nc2cc(-c3ccc4ncc(NCCN5CCOCC5)nc4c3)ccc2o1` )
Reply: < 1 µM

Task item: # get_value(readout='IC50', item= `Nc1nc2cc(-c3ccc4ncc(N5CCN(C(=O)CN6CCCC6)CC5)nc4c3)ccc2o1` )
Reply: < 10 µM

Task item: # get_value(readout='IC50', item= `Nc1nc2cc(-c3ccc4nccc(-c5cn[nH]c5)c4c3)ccc2o1` )
Reply: < 0.1 µM

Task item: # get_value(readout='IC50', item= `Nc1nc2cc(-c3ccc4ncc(N5CCN(CC(F)(F)F)CC5)nc4c3)ccc2o1` )
Reply: > 10 µM

---

biological target: PI3K α (p110α/p85α) (Homo sapiens, UniProt P42336); construct: purchased Upstate / Millipore Corporation; test: PI 3-Kinase (human) HTRF assay, PI3K α; format: biochemical; settings: read-out: PI3K α IC50
Sequence (P42336 whole entry): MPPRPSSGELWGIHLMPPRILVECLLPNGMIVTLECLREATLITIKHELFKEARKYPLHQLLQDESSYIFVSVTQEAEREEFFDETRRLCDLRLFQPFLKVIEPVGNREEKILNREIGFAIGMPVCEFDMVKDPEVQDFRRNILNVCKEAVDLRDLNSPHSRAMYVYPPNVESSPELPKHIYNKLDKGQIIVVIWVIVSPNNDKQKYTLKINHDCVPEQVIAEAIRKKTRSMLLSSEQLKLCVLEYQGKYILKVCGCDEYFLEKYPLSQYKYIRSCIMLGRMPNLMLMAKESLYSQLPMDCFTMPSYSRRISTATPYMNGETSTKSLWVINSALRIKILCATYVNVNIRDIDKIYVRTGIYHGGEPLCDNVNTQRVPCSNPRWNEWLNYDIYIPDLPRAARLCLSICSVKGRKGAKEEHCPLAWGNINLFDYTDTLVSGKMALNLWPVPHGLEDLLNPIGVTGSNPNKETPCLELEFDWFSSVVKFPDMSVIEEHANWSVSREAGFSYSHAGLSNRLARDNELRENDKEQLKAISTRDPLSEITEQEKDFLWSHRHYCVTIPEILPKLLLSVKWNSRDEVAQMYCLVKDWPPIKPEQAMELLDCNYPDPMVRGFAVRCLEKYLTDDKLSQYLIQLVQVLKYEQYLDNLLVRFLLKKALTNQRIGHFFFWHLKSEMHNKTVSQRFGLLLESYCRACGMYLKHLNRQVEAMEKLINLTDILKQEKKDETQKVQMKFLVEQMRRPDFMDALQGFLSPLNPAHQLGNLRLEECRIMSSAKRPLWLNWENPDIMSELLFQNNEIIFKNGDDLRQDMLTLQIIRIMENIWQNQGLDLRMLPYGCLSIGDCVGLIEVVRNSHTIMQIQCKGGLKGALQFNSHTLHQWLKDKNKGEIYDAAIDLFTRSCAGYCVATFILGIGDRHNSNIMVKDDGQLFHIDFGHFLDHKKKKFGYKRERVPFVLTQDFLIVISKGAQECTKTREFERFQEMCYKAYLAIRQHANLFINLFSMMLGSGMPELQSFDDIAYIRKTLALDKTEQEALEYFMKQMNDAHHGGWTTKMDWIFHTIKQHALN
Sequence (P27986 whole entry partner): as the sequence (P27986 whole entry partner) above
pIC50: −log10 of the molar value.
assay.metric: pIC50

Check out these entries, answers already filled in.
# compound, measured
data = [
    ("CC(C)N1CCC(n2cnc3ccc(-c4cnc(Cl)c(NS(C)(=O)=O)c4)cc3c2=O)CC1", "> 7.00"),
    ("Nc1nc2cc(-c3ccc4ncc(C(=O)N5C6CCC5COC6)n4c3)ccc2o1", "> 7.00"),
]

Task item: # get_value(readout='pIC50', item= `CN(C)C1CN(c2cnc3ccc(-c4ccc5oc(N)nc5c4)cc3n2)C1` )
Reply: > 7.00

Task item: # get_value(readout='pIC50', item= Nc1nc2cc(-c3ccc4ncc(N5CC(C(=O)N6CCOCC6)C5)nc4c3)ccc2o1 [Compound 169] )
Reply: > 7.00

---

biological target: PI3K γ (p110γ) (Homo sapiens); construct: purchased Upstate / Millipore Corporation; assay: PI 3-Kinase (human) HTRF assay, PI3K γ; assay type: biochemical; conditions: PI3K γ IC50 (nM)
Each entry below carries its recorded IC50.

Check out these entries, answers already filled in.
# smiles.repr, IC50
rows = [
    ("CN1CCC(N(C)c2ncnc3ccc(-c4ccc5oc(N)nc5c4)cc23)CC1", "< 100 nM"),
    ("CN1CCC(N(C)c2cnc3ccc(-c4ccc5oc(N)nc5c4)cc3n2)CC1", "< 10000 nM"),
]

Here is the next item to consider.
Task item: Notebook: pull reported IC50 for PI3K γ (p110γ) (Homo sapiens), entry `Nc1nc2cc(-c3ccc4ncc(C(=O)N5C6CCC5COC6)n4c3)ccc2o1`
Reply: < 1000 nM

---

target: PI3K α (p110α/p85α) (Homo sapiens); construct: purchased Upstate / Millipore Corporation; assay: PI 3-Kinase (human) HTRF assay, PI3K α; type: biochemical; settings: read-out: PI3K α IC50
pIC50: −log10 of the molar value.
Each entry below carries its recorded pIC50.

Check out these entries, answers already filled in.
# compound, tgt, measured
measured = [
    ("Nc1nc2cc(-c3ccc4ncc(NCCCN5CCCC5)nc4c3)ccc2o1", "PI3K α (p110α/p85α) (Homo sapiens)", "> 7.00"),
    ("CN1CCN(c2cnc3ccc(-c4ccc5oc(N)nc5c4)cc3n2)CC1=O", "PI3K α (p110α/p85α) (Homo sapiens)", "> 7.00"),
    ("CCNC(=O)c1cnc2ccc(-c3ccc4oc(N)nc4c3)cn12", "PI3K α (p110α/p85α) (Homo sapiens)", "> 7.00"),
    ("CS(=O)(=O)N1CCN(C(=O)c2cnc3ccc(-c4ccc5oc(N)nc5c4)cn23)CC1", "PI3K α (p110α/p85α) (Homo sapiens)", "> 7.00"),
    ("C[C@@H]1CN(c2cnc3ccc(-c4ccc5oc(N)nc5c4)cc3n2)CCN1", "PI3K α (p110α/p85α) (Homo sapiens)", "> 7.00"),
]

Task item: # get_value(readout='pIC50', item= `Nc1nc2cc(-c3ccn4ncc(C(=O)N5CCOCC5)c4c3)ccc2o1` )
Reply: > 6.00

Task item: # get_value(readout='pIC50', item= CC1CN(C(=O)c2cnc3ccc(-c4ccc5oc(N)nc5c4)cn23)CCN1 (stereo not drawn) )
Reply: > 6.00

Task item: # get_value(readout='pIC50', item= `Nc1nc2cc(-c3ccc4ncc(N5CC(O)C5)nc4c3)ccc2o1` )
Reply: > 7.00

Task item: # get_value(readout='pIC50', item= `C[C@@H]1CCCN1C(=O)c1cnc2ccc(-c3ccc4oc(N)nc4c3)cn12` )
Reply: > 7.00
